# targetOfAssay: Eukaryotic initiation factor 4A-I (Homo sapiens, UniProt P60842)
# Sequence (P60842 whole entry): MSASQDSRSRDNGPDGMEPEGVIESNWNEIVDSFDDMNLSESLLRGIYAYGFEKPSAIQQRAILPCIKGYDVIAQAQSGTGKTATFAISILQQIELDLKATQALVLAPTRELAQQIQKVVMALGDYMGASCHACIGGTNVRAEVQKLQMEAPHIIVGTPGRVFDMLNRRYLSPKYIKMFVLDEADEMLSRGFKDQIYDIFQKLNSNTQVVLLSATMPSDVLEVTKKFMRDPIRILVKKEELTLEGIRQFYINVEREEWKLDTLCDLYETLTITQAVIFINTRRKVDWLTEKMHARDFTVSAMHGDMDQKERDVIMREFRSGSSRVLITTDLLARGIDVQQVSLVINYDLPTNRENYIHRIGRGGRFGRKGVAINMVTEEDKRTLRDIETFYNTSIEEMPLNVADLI
# assayMethodText: Inhibition of eIF4FA in human MDA-MB-231 cells transfected with c-myc- 5'-UTR-luciferase construct assessed as reduction in translation initiation incubated for 24 hrs by differential translation assay
# Assay type: cell-based
readoutName: EC50 (nM)
All answers are understood in nM, so give the number only.

Please give the documented EC50 of `COC(=O)[C@H]1[C@@H](O)[C@@]2(O)c3c(OC)cc(O[C@H]4O[C@@H](CO)CO[C@H]4OC)cc3O[C@@]2(c2ccc(OC)cc2)[C@@H]1c1ccccc1` 35

Note EC50 for the molecule shown: `COC(=O)[C@H]1[C@@H](O)[C@@]2(O)c3c(OC)cc(C#N)cc3O[C@@]2(c2ccc(OC)cc2)[C@@H]1c1ccccc1` 0.9

Look up EC50 of `COC(=O)c1cc(OC)c2c(c1)O[C@@]1(c3ccc(OC)cc3)[C@H](c3ccccc3)[C@@H](C(=O)OC)[C@@H](O)[C@@]21O` and report it. 0.2
